Data provenance is patent US11446298B2.

- measurement target: EP4 (Homo sapiens, UniProt P35408)
- Construct: BT549 breast cancer cells, express high endogenous EP4 levels and very low EP2 levels; host or cells: BT549 breast cancer cells
- Sequence (P35408 whole entry): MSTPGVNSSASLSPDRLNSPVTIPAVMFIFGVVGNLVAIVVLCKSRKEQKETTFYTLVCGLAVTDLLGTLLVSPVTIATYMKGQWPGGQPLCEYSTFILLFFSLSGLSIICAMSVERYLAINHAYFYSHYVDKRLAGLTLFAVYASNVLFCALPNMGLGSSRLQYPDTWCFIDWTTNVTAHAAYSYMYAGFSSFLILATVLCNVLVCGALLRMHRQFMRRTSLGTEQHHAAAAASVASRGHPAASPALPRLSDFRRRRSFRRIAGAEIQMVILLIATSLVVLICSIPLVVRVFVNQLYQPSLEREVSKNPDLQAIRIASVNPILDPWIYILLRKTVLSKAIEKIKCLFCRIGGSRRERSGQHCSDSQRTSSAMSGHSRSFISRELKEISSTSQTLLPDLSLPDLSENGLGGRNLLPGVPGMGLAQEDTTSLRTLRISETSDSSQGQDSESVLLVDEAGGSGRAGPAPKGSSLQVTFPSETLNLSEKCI
- measurement protocol: hEP4 cAMP Assay (BT549 breast cancer cells, HTRF cAMP, PGE2 6 nM)
- Type: cell-based
- condition description: antagonistic activity, PGE2 6 nM (EC80)
The following ranges of IC50 define the classes used here: bottom bin (below 100 nM), middle bin (100 nM to below 600 nM), top bin (600 nM or more)

{"compound": "CCOc1cc(-c2cc(NCCc3cccc4ccccc34)ncn2)ccc1OCC(=O)O [Example 77]", "class": "middle bin"}
{"compound": "CCOc1cc(-c2cc(NCCc3c(OC)ccc4ncccc34)ncn2)sc1C(=N)NO [Example 146]", "class": "middle bin"}
{"compound": "COc1ccc2ccccc2c1CCNc1cc(-c2cc3cc(C(=O)O)ccc3[nH]2)ncn1 [Example 130]", "class": "middle bin"}
{"compound": "CCOc1cc(-c2cc(NCCc3c(OC)ccc4ncccc34)ncn2)ccc1OCC(=O)O [Example 66]", "class": "top bin"}
{"compound": "CCOc1cc(-c2cc(NCCc3c(C)c(C)cc4ccccc34)ncn2)sc1C(=O)O [Example 12]", "class": "bottom bin"}
{"compound": "CCOc1cc(-c2cc(NCCc3c(OCC)ccc4ccccc34)ncn2)ccc1C(=O)O [Example 179]", "class": "top bin"}
{"compound": "COc1ccc2ncccc2c1CCNc1cc(-c2cc(C(F)(F)F)c(C(=O)O)s2)ncn1 [Example 81]", "class": "middle bin"}
{"compound": "COc1ccc2ncccc2c1CCNc1cc(-c2ccc(-c3nnc(N)s3)cc2)ncn1 [Example 113]", "class": "middle bin"}
{"compound": "CCOc1cc(-c2cc(NCCc3cccc4c(F)cccc34)ncn2)ccc1CC(=O)O [Example 163]", "class": "middle bin"}
{"compound": "CCOc1cc(-c2cc(NCCc3cccc4ccoc34)ncn2)ccc1OCC(=O)O [Example 51]", "class": "top bin"}
{"compound": "CCOc1cc(-c2cc(NCCc3c(OC)ccc4ncccc34)ncn2)sc1C(=O)O [Example 65]", "class": "bottom bin"}
{"compound": "CCOc1cc(-c2cc(NCCc3c(OC)ccc4ncccc34)ncn2)ccc1NCC(=O)O [Example 88]", "class": "top bin"}
{"compound": "COc1ccc2ncccc2c1CCNc1cc(-c2ccnc(N3CCCCC3)c2)ncn1 [Example 112]", "class": "top bin"}
{"compound": "CCOc1cc(-c2cc(NCCc3cccc4[nH]ccc34)ncn2)sc1-c1noc(=O)[nH]1 [Example 137]", "class": "bottom bin"}
{"compound": "COc1ccc2ncccc2c1CCNc1cc(-c2ccc(C(=O)O)c(OC3CCC3)c2)ncn1 [Example 64]", "class": "top bin"}
{"compound": "CCOc1cc(-c2cc(NCCc3c(OC)ccc4nc(C)ccc34)ncn2)sc1C(=O)O [Example 13]", "class": "middle bin"}
{"compound": "CCOc1cc(-c2cc(NCCc3cc(OC)cc4ccccc34)ncn2)sc1C(=O)O [Example 42]", "class": "bottom bin"}
{"compound": "CCNC(=O)Nc1ccc(-c2cc(NCCc3c(OC)ccc4ncccc34)ncn2)cc1OC [Example 98]", "class": "middle bin"}
{"compound": "CCCc1cc(-c2cc(NCCc3c(OC)ccc4ccccc34)ncn2)ccc1C(=O)O [Example 121]", "class": "bottom bin"}
{"compound": "CCOc1cc(-c2cc(NCCc3ccc(OC)c4ccccc34)ncn2)sc1C(=O)O [Example 59]", "class": "bottom bin"}
{"compound": "CCOc1cc(-c2cc(NCCc3ccc(C(F)F)c4ccccc34)ncn2)sc1C(=O)O [Example 72]", "class": "bottom bin"}
{"compound": "CCOc1cc(-c2cc(NCCc3cccc4cc(C)n(C)c34)ncn2)ccc1OCC(=O)O [Example 57]", "class": "top bin"}
{"compound": "COc1ccc2ccccc2c1CCNc1cc(-c2cc(OCCN(C)C)c(C(=O)O)s2)ncn1 [Example 157]", "class": "top bin"}

====

- measurement target: EP2 (Homo sapiens)
- Construct: SF295 glioblastoma cells express high endogenous EP2 and no EP4
- Sequence (P43116 whole entry): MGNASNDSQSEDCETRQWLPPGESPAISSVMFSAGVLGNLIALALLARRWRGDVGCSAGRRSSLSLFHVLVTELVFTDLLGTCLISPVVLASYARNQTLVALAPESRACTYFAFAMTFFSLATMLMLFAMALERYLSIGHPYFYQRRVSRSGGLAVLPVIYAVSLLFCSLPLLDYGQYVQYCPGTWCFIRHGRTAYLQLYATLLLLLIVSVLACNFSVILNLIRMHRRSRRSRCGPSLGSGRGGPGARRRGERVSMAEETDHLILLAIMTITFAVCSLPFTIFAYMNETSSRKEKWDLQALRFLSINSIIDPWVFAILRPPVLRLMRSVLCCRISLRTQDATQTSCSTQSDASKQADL
- measurement protocol: hEP2 cAMP Assay (SF295 glioblastoma cells, HTRF cAMP, PGE2 75 nM)
- condition description: antagonistic activity, PGE2 75 nM (EC80)
Measured IC50 accompanies every entry in the list below.
parameter measured: IC50 (nM)

{"molecule": "CCOc1cc(-c2cc(NCCc3c(C)ccc4cnccc34)ncn2)ccc1OCC(=O)O [Example 86]", "measurement target": "EP2 (Homo sapiens)", "endpoint value": 77}
{"molecule": "COc1ccc2ccccc2c1CCNc1cc(-c2ccc(-c3c(O)c(=O)c3=O)cc2)ncn1 [Example 116]", "measurement target": "EP2 (Homo sapiens)", "endpoint value": 67}
{"molecule": "CCOc1cc(-c2cc(NCCc3c(OC)ccc4ccccc34)ncn2)sc1CCC(=O)O [Example 131]", "measurement target": "EP2 (Homo sapiens)", "endpoint value": 73}
{"molecule": "CCOc1cc(-c2cc(NCCc3cccc4cc[nH]c34)ncn2)sc1-c1noc(=O)[nH]1 [Example 143]", "measurement target": "EP2 (Homo sapiens)", "endpoint value": 90}

====

Measured pIC50 accompanies every entry in the list below.
- measurement target: EP4 (Homo sapiens, UniProt P35408)
- Construct: BT549 breast cancer cells, express high endogenous EP4 levels and very low EP2 levels
- measurement protocol: hEP4 cAMP Assay (BT549 breast cancer cells, HTRF cAMP, PGE2 6 nM)
- condition description: antagonistic activity, PGE2 6 nM (EC80)
pIC50: −log10 of the molar value.

{"smiles entry": "CCOc1cc(-c2cc(NCCc3ccc(Cl)c4ccccc34)ncn2)sc1C(=O)O", "pIC50": 7.54}
{"smiles entry": "CCOc1cc(-c2cc(NCCc3cccc4ccoc34)ncn2)sc1C(=O)O", "pIC50": 7.04}
{"smiles entry": "COc1ccc2ncccc2c1CCNc1cc(-c2ccc(-c3cc(O)no3)cc2)ncn1", "pIC50": 6.37}

====

Measured log10 of IC50 accompanies every entry in the list below.
- measurement target: EP4 (Homo sapiens)
- Construct: BT549 breast cancer cells, express high endogenous EP4 levels and very low EP2 levels
- measurement protocol: hEP4 cAMP Assay (BT549 breast cancer cells, HTRF cAMP, PGE2 6 nM)
- condition description: antagonistic activity, PGE2 6 nM (EC80)
parameter measured: log10 of IC50 (log10 of the value in nM)

{"compound": "COc1ccc2ncccc2c1CCNc1cc(-c2ccc3c(=O)[nH]n(C)c3c2)ncn1 [Example 117]", "measurement target": "EP4 (Homo sapiens)", "endpoint value": 2.21}
{"compound": "Cc1c(C)n(C)c2c(CCNc3cc(-c4ccc(C(=O)O)c(OC5CCC5)c4)ncn3)cccc12 [Example 28]", "measurement target": "EP4 (Homo sapiens)", "endpoint value": 2.99}
{"compound": "CCOc1cc(-c2cc(NCCc3cccc4c3ccn4C)ncn2)sc1C(=O)O [Example 25]", "measurement target": "EP4 (Homo sapiens)", "endpoint value": 1.68}
{"compound": "CSc1cc(-c2cc(NCCc3cccc4c(C)cccc34)ncn2)ccc1C(=O)O [Example 173]", "measurement target": "EP4 (Homo sapiens)", "endpoint value": 2.15}
{"compound": "CCOc1cc(-c2cc(NCCc3cccc4ccsc34)ncn2)sc1C(=O)O [Example 103]", "measurement target": "EP4 (Homo sapiens)", "endpoint value": 1.86}
{"compound": "Cc1ccc2c(cnn2C)c1CCNc1cc(-c2ccc3ncccc3c2)ncn1 [Example 114]", "measurement target": "EP4 (Homo sapiens)", "endpoint value": 2.69}
{"compound": "Cc1ccc2c(cnn2C)c1CCNc1cc(-c2ccc3ccncc3c2)ncn1 [Example 115]", "measurement target": "EP4 (Homo sapiens)", "endpoint value": 2.69}
